The following molecules each carry a recorded Ki for MASP-2 (CCP1-CCP2-SP) (Homo sapiens).
Counter-ions that a name gives are not always drawn.

Record excerpt, results attached:
Molecule | Ki
Cc1cc(F)cc(CNc2nc(-c3ccccc3)c3n(c2=O)[C@H](C(=O)NCc2ccc(N)nc2C)CC3)c1 [Compound 217, trifluoroacetate] | < 0.5 µM
O=C(NCc1cc2c(s1)CNC2)[C@@H]1CCc2cnc(N[C@@H](c3ccccc3)C3CC3)c(=O)n21 [Compound 259, trifluoroacetate] | < 0.5 µM

We now examine a further molecule.
Could you share what Ki was measured for Cc1ccc(F)cc1CNc1ncc2n(c1=O)[C@H](C(=O)N[C@H](C)c1ccc(N)nc1)CC2 [Compound 196, trifluoroacetate] , tested on MASP-2 (CCP1-CCP2-SP) (Homo sapiens)?
< 0.5 µM
